The origin of these recorded values is patent US20100227921A1.

Experiment: Comparative bioavailability after oral or intravenous administration to monkeys (plasma LC-MS-MS)
Type: in vivo, cynomolgus monkey
Conditions: male, cynomolgus monkey, plasma, iv, 0.5 mg tapentadol free base equiv/kg, male monkey, i.v. tapentadol valine carbamate 0.5 mg tapentadol free base equiv/kg, 1 h; mean
readout_name: concentration at 1 h

Endpoint output: concentration at 1 h of CC[C@H](c1cccc(OC(=O)N[C@H](C(=O)O)C(C)C)c1)[C@H](C)CN(C)C (racemic) [Tapentadol valine carbamate] . Value?
255 ng/mL

* * *

Assay: Comparative bioavailability after oral administration to rats (plasma LC-MS-MS)
Type: in vivo
Conditions: male, Sprague Dawley, rat, plasma, po, 10 mg tapentadol free base equiv/kg, oral tapentadol valine carbamate 10 mg tapentadol free base equiv/kg, 1 h, mean, read-out: Plasma concentration of tapentadol valine carbamate
readout_name: concentration at 1 h (ng/mL)
Return type: number; implicit unit ng/mL.

Endpoint output: concentration at 1 h of CC[C@H](c1cccc(OC(=O)N[C@H](C(=O)O)C(C)C)c1)[C@H](C)CN(C)C (racemic) [Tapentadol valine carbamate] . Value?
86.6

* * *

Assay: Comparative bioavailability after oral administration to rats (plasma LC-MS-MS)
Assay type: in vivo
Settings: male, Sprague Dawley, rat, plasma, po, 10 mg free base equiv/kg, oral tapentadol 10 mg free base equiv/kg, mean, animal 5 excluded, read-out: AUCt of tapentadol
Protocol: Test substances, i.e., tapentadol or tapentadol valine carbamate were administered by oral gavage to groups of male Sprague Dawley rats. Blood samples were taken at various times after administration and submitted to analysis for the parent drug and pro-drug using a validated LC-MS-MS assay. Pharmacokinetic parameters derived from the plasma analytical data were determined using Win Nonlin.
readout_name: AUC(0-t) (ng·h/mL)
Return type: number; implicit unit ng·h/mL.

Endpoint output: AUC(0-t) of CC[C@@H](c1cccc(O)c1)[C@@H](C)CN(C)C (racemic) [Tapentadol] . Value?
16.4

* * *

Assay: Comparative bioavailability after oral administration to rats (plasma LC-MS-MS)
Type: in vivo
Details: Sprague Dawley, plasma; male rat, oral tapentadol valine carbamate 10 mg tapentadol free base equiv/kg, 1 h; individual animals 6-10; read-out: Plasma concentration of tapentadol valine carbamate
readout_name: concentration at 1 h (µg/mL)
Return type: number; implicit unit µg/mL.

Endpoint output: concentration at 1 h of CC[C@H](c1cccc(OC(=O)N[C@H](C(=O)O)C(C)C)c1)[C@H](C)CN(C)C (racemic) [Tapentadol valine carbamate] . Value?
0.0724

* * *

Assay: Comparative in vivo bioavailability study in the dog (oral gavage, plasma LC-MS-MS)
Settings: Beagle, plasma, po, 0.8 mg/kg, oral tapentadol valine carbamate 0.8 mg tapentadol base equiv/kg, individual dogs 1-5, read-out: Tmax of tapentadol
readout_name: Tmax (h)
Return type: number; implicit unit h.

Endpoint output: Tmax of CC[C@@H](c1cccc(O)c1)[C@@H](C)CN(C)C (racemic) . Value?
1

* * *

Experiment: Comparative in vivo bioavailability study in the dog (oral gavage, plasma LC-MS-MS)
Details: Beagle, plasma, po, 1 mg/kg, oral tapentadol HCl 1 mg tapentadol base equiv/kg, mean of 5 dogs, read-out: Cmax of tapentadol
Method: Test substances (i.e., tapentadol (1 mg/kg) and tapentadol valine carbamate (0.8 mg tapentadol base equivalents/kg)) were administered by oral gavage to a group of five dogs (dog nos. 1, 2, 3, 4 and 5) in a two-way crossover design. […] Blood samples were taken at various times after administration and submitted to analysis for the parent drug and pro-drug using a validated LC-MS-MS assay. Pharmacokinetic parameters derived from the plasma analytical data were determined using Win Nonlin.
readout_name: Cmax (ng/mL)
Return type: number; implicit unit ng/mL.

Endpoint output: Cmax of CC[C@@H](c1cccc(O)c1)[C@@H](C)CN(C)C (racemic) [Tapentadol] . Value?
1.45
